# Target Under Test: Aldehyde dehydrogenase 1A1 (Homo sapiens) (UniProt P00352)
# Sequence (P00352 whole entry, looked up): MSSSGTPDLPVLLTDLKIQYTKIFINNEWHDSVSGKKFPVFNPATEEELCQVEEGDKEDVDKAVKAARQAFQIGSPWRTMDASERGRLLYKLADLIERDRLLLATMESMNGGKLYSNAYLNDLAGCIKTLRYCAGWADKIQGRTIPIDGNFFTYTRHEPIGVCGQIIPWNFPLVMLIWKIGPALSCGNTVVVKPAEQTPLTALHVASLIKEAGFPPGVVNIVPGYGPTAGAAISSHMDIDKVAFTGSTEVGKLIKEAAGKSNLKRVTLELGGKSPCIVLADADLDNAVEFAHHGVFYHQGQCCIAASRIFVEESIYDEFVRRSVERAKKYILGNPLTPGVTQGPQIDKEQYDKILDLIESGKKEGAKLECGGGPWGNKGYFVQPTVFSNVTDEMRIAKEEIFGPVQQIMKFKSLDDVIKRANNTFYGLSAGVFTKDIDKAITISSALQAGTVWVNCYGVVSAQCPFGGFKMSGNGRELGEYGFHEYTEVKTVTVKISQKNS
# Assay Summary: qHTS Assay for Inhibitors of Aldehyde Dehydrogenase 1 (ALDH1A1)
# Details: Purified ALDH1A1, NADH fluorescence, propionaldehyde substrate; series mostly up to 75.3 µM
Among all 220,000 compounds or so, about 16,000 (7.3%) were called active. Another 25% or so got no clear call; they are omitted. The call rests on the fitted dose curve; in most records, active means well fitted inhibition curve with a large enough effect (not every such curve was filed as active); inconclusive means small, poorly fitted or top-dose-only effect, or another doubt; inactive means no such curve, though single readings can be large or run the other way. Many of the other results were omitted from the sample, so actives are more common in it than they were.
Classes used: TRUE (active), FALSE (inactive)

[[record]]
compound = "Cn1ncc(N2CCN(S(=O)(=O)c3ccc(Br)cc3)CC2)c(Cl)c1=O"
class_name = "FALSE"

[[record]]
compound = "Cc1cc(C(C)(C)C)cc(C)c1N"
class_name = "FALSE"

[[record]]
compound = "NC(=O)N1CCc2ccccc21"
class_name = "FALSE"

[[record]]
compound = "NC(CSC12CC3CC(CC(C3)C1)C2)C(=O)O (stereo unspecified)"
class_name = "TRUE"

[[record]]
compound = "Cc1cccc(NC(=O)c2ccc3nsnc3c2)c1C"
class_name = "FALSE"

[[record]]
compound = "Cc1ccc(S(=O)(=O)NCC(=O)N(CC(=O)NC2CCCCC2)Cc2ccco2)cc1"
class_name = "TRUE"


---

# Target Under Test: Aldehyde dehydrogenase 1A1 (Homo sapiens)
# Assay Summary: qHTS Assay for Inhibitors of Aldehyde Dehydrogenase 1 (ALDH1A1); further: potency means the concentration at half of the fitted maximal effect
# Details: Purified ALDH1A1, NADH fluorescence, propionaldehyde substrate; series mostly up to 75.3 µM
Screen size: about 220,000 compounds; about 16,000 (7.3%) were called active. Roughly 25% stayed inconclusive and do not appear here. This excerpt belongs to a sample that is enriched for actives.
Quantity Name: Potency

[[record]]
smi = "CCCCCC(=O)NC(=S)NNC(=O)c1ccc([N+](=O)[O-])cc1"
target_under_test = "Aldehyde dehydrogenase 1A1 (Homo sapiens)"
result = "14.1 µM (active)"

[[record]]
smi = "Cc1ccc(-c2c(C)n([O-])c3c([n+]2=O)CCC3)cc1"
target_under_test = "Aldehyde dehydrogenase 1A1 (Homo sapiens)"
result = "inactive"

[[record]]
smi = "Cc1ccc(Cl)cc1NC(=O)C1CCN(S(C)(=O)=O)CC1"
target_under_test = "Aldehyde dehydrogenase 1A1 (Homo sapiens)"
result = "inactive"

[[record]]
smi = "Cc1ccc(-c2c[n+](=O)c3c(n2[O-])CCC3)cc1"
target_under_test = "Aldehyde dehydrogenase 1A1 (Homo sapiens)"
result = "inactive"

[[record]]
smi = "O=C(c1ccc(S(=O)(=O)c2ccccc2)cc1)N1CCCCCC1"
target_under_test = "Aldehyde dehydrogenase 1A1 (Homo sapiens)"
result = "inactive"

[[record]]
smi = "CCNC(=S)NNC(=O)C1CCN(Cc2ccccc2)CC1"
target_under_test = "Aldehyde dehydrogenase 1A1 (Homo sapiens)"
result = "inactive"

[[record]]
smi = "COc1ccc(-n2nnnc2SCC(=O)Nc2ccccc2)cc1"
target_under_test = "Aldehyde dehydrogenase 1A1 (Homo sapiens)"
result = "inactive"

[[record]]
smi = "COc1ccc2nc(Nc3nc(-c4ccncc4)cs3)sc2c1"
target_under_test = "Aldehyde dehydrogenase 1A1 (Homo sapiens)"
result = "inactive"

[[record]]
smi = "Cc1ccc(Nc2nc(CSc3nnnn3-c3ccccc3)cc(=O)[nH]2)cc1"
target_under_test = "Aldehyde dehydrogenase 1A1 (Homo sapiens)"
result = "22.4 µM (active)"

[[record]]
smi = "O=c1ccn([C@@H]2O[C@H](COP(=O)(O)OP(=O)(O)OP(=O)(O)O)[C@@H](O)[C@H]2O)c(=O)[nH]1"
target_under_test = "Aldehyde dehydrogenase 1A1 (Homo sapiens)"
result = "inactive"

[[record]]
smi = "Cc1ccc(-c2noc(CC(c3ccccc3)c3ccccc3)n2)cc1"
target_under_test = "Aldehyde dehydrogenase 1A1 (Homo sapiens)"
result = "inactive"

[[record]]
smi = "Cc1ccc(-c2noc(CSc3nnc(-c4cccs4)n3C)n2)cc1"
target_under_test = "Aldehyde dehydrogenase 1A1 (Homo sapiens)"
result = "inactive"

[[record]]
smi = "Cc1ccc(SCCC(=O)NCc2ccccn2)cc1"
target_under_test = "Aldehyde dehydrogenase 1A1 (Homo sapiens)"
result = "inactive"

[[record]]
smi = "COCCCNC(=S)NC(=O)c1ccc([N+](=O)[O-])cc1"
target_under_test = "Aldehyde dehydrogenase 1A1 (Homo sapiens)"
result = "20 µM (active)"

[[record]]
smi = "O=C(Nc1ccc(N2CCN(C(=O)c3ccccc3)CC2)c(Cl)c1)c1cccnc1"
target_under_test = "Aldehyde dehydrogenase 1A1 (Homo sapiens)"
result = "inactive"

[[record]]
smi = "O=C(CSc1nc2ccccc2[nH]1)N/N=C/C=C\\c1ccccc1[N+](=O)[O-]"
target_under_test = "Aldehyde dehydrogenase 1A1 (Homo sapiens)"
result = "5.01 µM (active)"

[[record]]
smi = "CCN(CC)CCNc1nc(-c2ccc(OC(F)F)cc2)c(C)s1"
target_under_test = "Aldehyde dehydrogenase 1A1 (Homo sapiens)"
result = "inactive"

[[record]]
smi = "O=C(COc1ccc(Br)cc1F)NC1CCN(Cc2ccccc2)CC1"
target_under_test = "Aldehyde dehydrogenase 1A1 (Homo sapiens)"
result = "inactive"

[[record]]
smi = "Cc1ccc(-c2noc(CN3CCN(Cc4ccccc4)CC3)n2)cc1"
target_under_test = "Aldehyde dehydrogenase 1A1 (Homo sapiens)"
result = "28.2 µM (active)"

[[record]]
smi = "Cc1cc(Cl)ccc1OCCCC(=O)NCc1ccccn1"
target_under_test = "Aldehyde dehydrogenase 1A1 (Homo sapiens)"
result = "inactive"

[[record]]
smi = "CCn1c(SCC(=O)N/N=C/C=C/c2ccccc2[N+](=O)[O-])nnc1-c1ccccc1"
target_under_test = "Aldehyde dehydrogenase 1A1 (Homo sapiens)"
result = "7.94 µM (active)"

[[record]]
smi = "C=CCn1c(CC(=O)Nc2cccc(OC)c2)nnc1SCC(=O)NC1CCCCC1"
target_under_test = "Aldehyde dehydrogenase 1A1 (Homo sapiens)"
result = "inactive"

[[record]]
smi = "O=C(Nc1cccc(C(=O)N2CCCC2)c1)c1ccccc1"
target_under_test = "Aldehyde dehydrogenase 1A1 (Homo sapiens)"
result = "inactive"

[[record]]
smi = "CC(=O)N/N=C(\\C)c1ccc(Br)cc1Br"
target_under_test = "Aldehyde dehydrogenase 1A1 (Homo sapiens)"
result = "inactive"

